biological target: Tumour suppressor p53/oncoprotein Mdm2 (Homo sapiens); experiment: Inhibition of human MDM2/p53 interaction by fluorescence polarization assay
Sequence (P04637 whole entry): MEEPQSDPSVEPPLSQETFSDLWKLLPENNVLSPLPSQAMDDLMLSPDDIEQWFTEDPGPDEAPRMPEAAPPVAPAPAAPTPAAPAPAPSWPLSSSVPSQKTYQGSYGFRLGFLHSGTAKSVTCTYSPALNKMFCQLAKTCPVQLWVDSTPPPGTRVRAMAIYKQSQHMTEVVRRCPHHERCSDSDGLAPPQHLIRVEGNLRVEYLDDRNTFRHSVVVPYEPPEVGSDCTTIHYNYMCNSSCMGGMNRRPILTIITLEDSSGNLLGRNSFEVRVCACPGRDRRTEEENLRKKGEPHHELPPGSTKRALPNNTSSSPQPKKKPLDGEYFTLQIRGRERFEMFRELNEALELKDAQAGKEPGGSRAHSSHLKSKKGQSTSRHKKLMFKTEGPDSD
Sequence (Q00987 whole entry): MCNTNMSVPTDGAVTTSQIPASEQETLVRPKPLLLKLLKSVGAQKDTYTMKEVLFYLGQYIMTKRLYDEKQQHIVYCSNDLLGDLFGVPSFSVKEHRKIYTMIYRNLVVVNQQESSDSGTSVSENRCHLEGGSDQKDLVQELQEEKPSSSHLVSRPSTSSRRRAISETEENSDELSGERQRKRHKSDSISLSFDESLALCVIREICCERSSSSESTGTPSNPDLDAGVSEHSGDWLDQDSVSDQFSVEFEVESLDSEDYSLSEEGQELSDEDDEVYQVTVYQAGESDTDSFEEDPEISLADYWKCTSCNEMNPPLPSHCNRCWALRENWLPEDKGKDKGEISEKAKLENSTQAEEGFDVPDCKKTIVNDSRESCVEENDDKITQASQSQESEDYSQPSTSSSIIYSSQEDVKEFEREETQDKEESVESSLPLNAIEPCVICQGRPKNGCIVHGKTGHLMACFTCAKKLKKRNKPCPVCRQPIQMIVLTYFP
observation_type: IC50 (µM)
A number alone suffices; assume µM.

Problem: Find the measured IC50 of O=C(c1cnccc1C(F)(F)F)N1CCCC(Oc2cccc(Cl)c2)(C(=O)N2CCN(c3ccccn3)CC2)C1 (centres undefined) and report it.
Solution: 5.2

Problem: Find the measured IC50 of O=C(c1cnccc1C(F)(F)F)N1CCCC(Oc2ccc(C(F)(F)F)cc2)(C(=O)N2CCN(C3CCCCC3)CC2)C1 (centres undefined) and report it.
Solution: 4.2

Problem: Find the measured IC50 of O=C(c1cnccc1C(F)(F)F)N1CCCC(Oc2ccc(C(F)(F)F)cc2)(C(=O)N2CCC(c3ccccn3)C2)C1 (centres undefined) and report it.
Solution: 3.7

Problem: Find the measured IC50 of O=C(c1cnccc1C(F)(F)F)N1CCCC(Oc2ccc(Cl)c(F)c2)(C(=O)N2CCN(c3ccccn3)CC2)C1 (centres undefined) and report it.
Solution: 1.4
